# METHOD: small molecules captured by biotinylated probe aFGF2 – biochemical, small-molecule microarray, fluorescence 635/667, stem cell growth factor project, primary screen (AID 1067);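 note: measures binding of biotinylated aFGF2 protein to printed compounds on slides; z-score merges feature fluorescence and signal-to-noise across triplicate slides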
# EXPERIMENTAL_CONDITIONS: higher = more signal
Property: composite z-score; scope: individual compounds
Number, no unit, nothing else.

{"columns": ["COMPOUND", "composite z-score"],
 "data": [
  ["COc1ccc(C(=O)Nc2ccc3c(c2)[C@]2(O[C@@H](CCO)[C@H]([Si](C)(C)c4ccc(OC)cc4)[C@H]2C)C(=O)N3Cc2ccccc2)cc1", -0.155]
]}

Which value of composite z-score has been reported for OCCCC1=CC(c2cccs2)N(Cc2cccc(OC(F)(F)F)c2)CC1 (configuration not stated) in the records?
-0.11

Which value of composite z-score has been reported for "[N-]=[N+]=NCc1ccccc1C[C@]1(C(=O)NCCN2CCOCC2)N=C(c2ccc(OCCCO)cc2)O[C@H]1c1ccccc1" in the records?
-0.0085

Which value of composite z-score has been reported for "COCCCNC(=O)[C@@H]1c2ccccc2C(=O)N(Cc2cc(F)cc(C(F)(F)F)c2)[C@H]1c1ccc(CO)cc1" in the records?
-0.233
